Overview of recorded log10 of Ki for various molecules
Tgt: TYK2 kinase domain (Homo sapiens, UniProt P29597)
Construct: The activity of the isolated JAK1, JAK2 or TYK2 kinase domain was measured
Sequence (P29597 897-1176 limits assumed): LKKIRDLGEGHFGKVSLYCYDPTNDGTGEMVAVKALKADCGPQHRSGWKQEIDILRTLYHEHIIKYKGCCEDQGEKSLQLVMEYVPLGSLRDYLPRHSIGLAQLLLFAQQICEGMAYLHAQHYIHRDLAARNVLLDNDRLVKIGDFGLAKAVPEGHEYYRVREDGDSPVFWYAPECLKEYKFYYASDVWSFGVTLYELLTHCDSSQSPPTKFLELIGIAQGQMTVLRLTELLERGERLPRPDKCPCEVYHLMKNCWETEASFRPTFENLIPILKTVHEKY
Test summary: JAK1, JAK2 and TYK2 Inhibition Assay Protocol (Example A): TYK2 kinase domain, Caliper LabChip peptide phosphorylation
Condition description: isolated TYK2 kinase domain, 1 nM enzyme, 25 uM ATP, Morrison tight binding model
Values below are the log10 of the recorded Ki, with nM as the unit.

Using the record for COC(=O)Nc1nccc2nn(-c3c(Cl)cccc3Cl)cc12 , report its log10 of Ki.
0.72

// next record O=C(Nc1nccc2nn(-c3c(F)cccc3Cl)cc12)C1CC1
0.20

// next record Cc1cc(Nc2ncc(Cl)c3nn(-c4c(Cl)cc(C#N)cc4Cl)cc23)ncn1
0.75

// next record O=C(Nc1nccc2nn(-c3c(Cl)cccc3Cl)cc12)C1CC1
0.11

// next record CC(O)c1cc(Nc2ncc(F)c3nn(-c4c(Cl)cccc4C#N)cc23)ncn1 (stereo not drawn)
-0.10

// next record OCc1cc(Nc2ncc(Br)c3nn(-c4c(Cl)cccc4Cl)cc23)ncn1
-0.40

// provenance: patent US9309240B2
